- subject of test: HiBit-WIZ fusion protein (Homo sapiens, UniProt O95785+Q96SW2)
- Sequence (O95785 whole entry, the tested form may be a part): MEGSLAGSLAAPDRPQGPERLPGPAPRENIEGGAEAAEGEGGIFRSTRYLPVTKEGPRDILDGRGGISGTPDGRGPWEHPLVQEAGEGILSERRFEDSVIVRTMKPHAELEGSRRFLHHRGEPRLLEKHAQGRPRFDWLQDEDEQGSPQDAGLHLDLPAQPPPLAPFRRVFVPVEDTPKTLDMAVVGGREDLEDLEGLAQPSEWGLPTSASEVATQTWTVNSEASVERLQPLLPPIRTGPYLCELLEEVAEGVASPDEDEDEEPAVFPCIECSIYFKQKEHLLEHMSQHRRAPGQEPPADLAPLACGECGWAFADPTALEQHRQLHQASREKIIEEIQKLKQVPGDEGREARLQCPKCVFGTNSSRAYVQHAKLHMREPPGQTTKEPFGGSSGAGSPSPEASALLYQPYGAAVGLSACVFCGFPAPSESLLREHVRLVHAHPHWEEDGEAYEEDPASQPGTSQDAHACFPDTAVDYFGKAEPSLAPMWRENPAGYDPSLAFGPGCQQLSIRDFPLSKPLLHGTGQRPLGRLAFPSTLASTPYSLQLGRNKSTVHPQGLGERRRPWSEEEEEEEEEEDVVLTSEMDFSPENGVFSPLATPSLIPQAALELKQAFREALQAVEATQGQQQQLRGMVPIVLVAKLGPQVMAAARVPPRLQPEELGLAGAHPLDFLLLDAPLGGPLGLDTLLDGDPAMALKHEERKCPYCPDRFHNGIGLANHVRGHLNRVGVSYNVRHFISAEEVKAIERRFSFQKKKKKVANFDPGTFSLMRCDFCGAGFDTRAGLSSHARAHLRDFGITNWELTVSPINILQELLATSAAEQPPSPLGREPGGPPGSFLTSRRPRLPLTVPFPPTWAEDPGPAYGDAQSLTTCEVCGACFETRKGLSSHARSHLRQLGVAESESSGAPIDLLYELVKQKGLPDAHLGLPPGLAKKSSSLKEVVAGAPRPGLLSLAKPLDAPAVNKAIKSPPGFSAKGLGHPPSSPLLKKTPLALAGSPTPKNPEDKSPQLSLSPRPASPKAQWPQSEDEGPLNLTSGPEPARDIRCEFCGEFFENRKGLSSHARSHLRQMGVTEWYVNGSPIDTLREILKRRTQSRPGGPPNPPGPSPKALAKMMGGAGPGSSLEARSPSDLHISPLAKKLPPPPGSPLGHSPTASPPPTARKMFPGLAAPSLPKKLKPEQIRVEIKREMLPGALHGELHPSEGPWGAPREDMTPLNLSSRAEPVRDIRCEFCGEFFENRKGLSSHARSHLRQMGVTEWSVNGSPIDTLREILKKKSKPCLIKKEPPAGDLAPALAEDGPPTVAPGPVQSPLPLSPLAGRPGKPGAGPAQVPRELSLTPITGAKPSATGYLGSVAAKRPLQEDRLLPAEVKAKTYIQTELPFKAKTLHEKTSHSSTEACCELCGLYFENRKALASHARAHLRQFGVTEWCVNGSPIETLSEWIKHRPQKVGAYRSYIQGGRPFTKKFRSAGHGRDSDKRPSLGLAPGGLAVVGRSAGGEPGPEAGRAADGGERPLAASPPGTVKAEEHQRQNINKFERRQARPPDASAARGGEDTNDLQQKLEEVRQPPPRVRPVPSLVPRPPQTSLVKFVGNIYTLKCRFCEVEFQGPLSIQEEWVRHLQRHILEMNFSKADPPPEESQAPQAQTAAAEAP
- Sequence (Q96SW2 whole entry, the tested form may be a part): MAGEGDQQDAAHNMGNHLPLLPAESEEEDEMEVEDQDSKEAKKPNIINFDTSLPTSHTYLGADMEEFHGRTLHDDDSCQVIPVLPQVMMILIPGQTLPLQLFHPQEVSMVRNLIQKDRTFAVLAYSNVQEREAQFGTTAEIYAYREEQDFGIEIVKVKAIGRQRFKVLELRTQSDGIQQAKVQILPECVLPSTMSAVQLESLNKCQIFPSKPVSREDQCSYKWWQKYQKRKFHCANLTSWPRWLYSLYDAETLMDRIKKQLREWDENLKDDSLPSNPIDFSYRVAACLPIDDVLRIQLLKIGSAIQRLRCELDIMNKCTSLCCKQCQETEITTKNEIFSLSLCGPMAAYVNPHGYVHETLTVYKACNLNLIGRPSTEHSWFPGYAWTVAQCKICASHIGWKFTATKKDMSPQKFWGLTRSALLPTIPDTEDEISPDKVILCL
- Sequence (Q16531 whole entry partner, the tested form may be a part): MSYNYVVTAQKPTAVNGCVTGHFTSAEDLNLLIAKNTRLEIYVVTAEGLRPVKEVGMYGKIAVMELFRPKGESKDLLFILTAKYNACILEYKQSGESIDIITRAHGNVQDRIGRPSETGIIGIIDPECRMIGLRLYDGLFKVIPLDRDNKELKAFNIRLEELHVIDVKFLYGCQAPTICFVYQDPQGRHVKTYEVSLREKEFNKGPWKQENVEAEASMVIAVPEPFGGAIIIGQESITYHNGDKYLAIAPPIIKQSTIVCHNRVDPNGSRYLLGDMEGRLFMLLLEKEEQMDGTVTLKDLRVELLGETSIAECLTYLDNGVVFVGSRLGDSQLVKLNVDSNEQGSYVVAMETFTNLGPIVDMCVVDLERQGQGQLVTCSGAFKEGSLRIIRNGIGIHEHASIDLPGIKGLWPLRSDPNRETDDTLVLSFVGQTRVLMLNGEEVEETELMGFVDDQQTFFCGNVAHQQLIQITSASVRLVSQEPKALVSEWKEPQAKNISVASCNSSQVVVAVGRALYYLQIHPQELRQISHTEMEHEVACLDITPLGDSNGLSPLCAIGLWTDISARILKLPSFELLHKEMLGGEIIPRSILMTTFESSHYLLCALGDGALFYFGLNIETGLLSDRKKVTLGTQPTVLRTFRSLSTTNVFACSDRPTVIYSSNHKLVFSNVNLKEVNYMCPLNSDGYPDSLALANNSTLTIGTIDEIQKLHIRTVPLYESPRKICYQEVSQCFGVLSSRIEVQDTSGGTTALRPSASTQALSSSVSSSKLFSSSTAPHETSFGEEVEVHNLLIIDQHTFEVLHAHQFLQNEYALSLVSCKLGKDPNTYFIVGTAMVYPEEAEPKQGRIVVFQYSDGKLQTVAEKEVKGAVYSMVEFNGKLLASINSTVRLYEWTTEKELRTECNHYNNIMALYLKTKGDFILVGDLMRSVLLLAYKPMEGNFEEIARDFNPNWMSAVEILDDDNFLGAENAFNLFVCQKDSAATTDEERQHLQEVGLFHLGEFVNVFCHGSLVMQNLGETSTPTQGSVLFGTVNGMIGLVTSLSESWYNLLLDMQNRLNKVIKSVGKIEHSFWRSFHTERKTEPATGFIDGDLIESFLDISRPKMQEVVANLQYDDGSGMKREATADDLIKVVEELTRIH
- protocol: Quantification of WIZ protein levels in HiBit tag fusion protein assay (WIZ HiBit assay in 293T cells)
- Format: cell-based
- Design: dose or concentration left out as unconfirmed
- test parameters: HEK-293T, 100 minus Amax; 293T cells; read-out: % degradation of WIZ (100-Amax)
Dmax reference
quantity kind: Dmax (%)

| compound | unit | numeric value |
| --- | --- | --- |
| O=C1CCC(N2Cc3cc(OC[C@@H]4CCCCN4C(=O)[C@H]4CCN(Cc5ccccc5)C4)ccc3C2=O)C(=O)N1 (stereo partly drawn) [Compound I-72cy] | % | 15.2 |
| O=C1CCC(N2Cc3cc(OC[C@H]4CCCCN4Cc4cnc5ccccc5c4)ccc3C2=O)C(=O)N1 (stereo partly drawn) | % | 98.6 |
| O=C1CCC(N2Cc3cc(OC[C@@H]4CCCCN4C(=O)c4cccnc4N4CCCC4)ccc3C2=O)C(=O)N1 (stereo partly drawn) [Compound I-72gb] | % | 23.9 |
| O=C1CCC(N2Cc3cc(OC[C@@H]4CCCCN4Cc4ccc(N5CCCC5=O)cc4)ccc3C2=O)C(=O)N1 (stereo partly drawn) [Compound I-50o] | % | 58.4 |
| O=C1CCC(N2Cc3cc(OC[C@@H]4CCCCN4Cc4cn[nH]c4)ccc3C2=O)C(=O)N1 (stereo partly drawn) [Compound I-50cc] | % | 71.7 |
| CC(C)c1cc(C(=O)N2CCCC[C@H]2COc2ccc3c(c2)CN(C2CCC(=O)NC2=O)C3=O)no1 (stereo partly drawn) [Compound I-72cf] | % | 35 |
| CO[C@H]1C[C@@H](CN2CCCC[C@@H]2COc2ccc3c(c2)CN(C2CCC(=O)NC2=O)C3=O)C1 (stereo partly drawn) | % | 85.4 |
| Cn1ccc(-c2cccc(C(=O)N3CCCC[C@H]3COc3ccc4c(c3)CN(C3CCC(=O)NC3=O)C4=O)c2)n1 (stereo partly drawn) [Compound I-72id] | % | 11 |
| COC(=O)c1ccc(Oc2ccc(CN3CCCC[C@H]3COc3ccc4c(c3)CN(C3CCC(=O)NC3=O)C4=O)cc2)cc1 (stereo partly drawn) [Compound I-50g] | % | 88.9 |
| O=C1CCC(N2Cc3cc(OC[C@H]4CCCCN4Cc4cc(-n5nnnc5C(F)(F)F)ccc4O)ccc3C2=O)C(=O)N1 (stereo partly drawn) [Compound I-50ei] | % | 31.4 |
| CC(C)(C)N1CCN(c2ccc(CN3CCCC[C@@H]3COc3ccc4c(c3)CN(C3CCC(=O)NC3=O)C4=O)cc2)CC1 (stereo partly drawn) | % | 73.5 |
| COC(=O)c1ccc(Oc2ccc(CN3CCCC[C@@H]3COc3ccc4c(c3)CN(C3CCC(=O)NC3=O)C4=O)cc2)cc1 (stereo partly drawn) [Compound I-50bh] | % | 99.9 |
| O=C1CCC(N2Cc3cc(OC[C@@H]4CCCCN4Cc4cccc(N5CCOCC5)n4)ccc3C2=O)C(=O)N1 (stereo partly drawn) [Compound I-50bo] | % | 57.4 |
| N#Cc1cccc(CN2CCCC[C@H]2COc2ccc3c(c2)CN(C2CCC(=O)NC2=O)C3=O)c1 (stereo partly drawn) [Compound I-50bm] | % | 36 |
| O=C1CCC(N2Cc3cc(OC[C@H]4CCCCN4Cc4ccc(C5=CCOCC5)cc4)ccc3C2=O)C(=O)N1 (stereo partly drawn) | % | 86.6 |
| O=C1CCC(N2Cc3cc(OC[C@H]4CCCCN4Cc4ccccc4OCCN4CCOCC4)ccc3C2=O)C(=O)N1 (stereo partly drawn) [Compound I-50ed] | % | 92.3 |
| O=C1CCC(N2Cc3cc(OC[C@H]4CCCCN4Cc4ccc(C5(C(F)(F)F)CC5)cc4)ccc3C2=O)C(=O)N1 (stereo partly drawn) | % | 94.3 |
| O=C1CCC(N2Cc3cc(OC[C@@H]4CCCCN4C(=O)Cc4cscn4)ccc3C2=O)C(=O)N1 (stereo partly drawn) [Compound I-72m] | % | 8.4 |
| Cc1ccnc(-c2cc(C(=O)N3CCCC[C@H]3COc3ccc4c(c3)CN(C3CCC(=O)NC3=O)C4=O)ccn2)c1 (stereo partly drawn) [Compound I-72fa] | % | 5.1 |
| O=C1CCC(N2Cc3cc(OC[C@@H]4CCCCN4Cc4cc(-n5nnnc5C(F)(F)F)ccc4O)ccc3C2=O)C(=O)N1 (stereo partly drawn) [Compound I-50x] | % | 22 |
| COC1CCC(CN2CCCCC2C(C)Oc2ccc3c(c2)CN(C2CCC(=O)NC2=O)C3=O)CC1 (single isomer, unassigned) [Compound I-219] | % | 73.9 |
| Cc1noc(-c2ccc(C(=O)N3CCCC[C@H]3COc3ccc4c(c3)CN(C3CCC(=O)NC3=O)C4=O)cc2)n1 (stereo partly drawn) [Compound I-72ar] | % | 71.8 |
| O=C1CCC(N2Cc3cc(OC[C@@H]4CCCCN4Cc4ncc[nH]4)ccc3C2=O)C(=O)N1 (stereo partly drawn) [Compound I-50w] | % | 25.9 |
| O=C1CCC(N2Cc3cc(OC[C@@H]4CCCCN4C(=O)c4ccccc4Cn4cncn4)ccc3C2=O)C(=O)N1 (stereo partly drawn) [Compound I-72jx] | % | 6.1 |
| Cc1nnc(-c2ccc(CN3CCCC[C@@H]3COc3ccc4c(c3)CN(C3CCC(=O)NC3=O)C4=O)cc2)o1 (stereo partly drawn) [Compound I-50dv] | % | 65 |
| CCc1ocnc1C(=O)N1CCCC[C@H]1COc1ccc2c(c1)CN(C1CCC(=O)NC1=O)C2=O (stereo partly drawn) [Compound I-72ah] | % | 22.9 |
| O=C1CCC(N2Cc3cc(OC[C@H]4CCCCN4CC45CC(F)(C4)C5)ccc3C2=O)C(=O)N1 (stereo partly drawn) | % | 82.2 |
